Hey, just so you know, these numbers are from patent US20240108702A1.

assay: in vivo
study_conditions: both, cynomolgus monkey, iv, 10 mg/kg/day, Cmax, cynomolgus, 10 mg/kg/day i.v., Day 10, mean
Where a SMILES comes first, the peptide text is derived from it. Bridges are numbered along the chain shown (N, C = ends).
quantity: Cmax (µg/mL)
Give the number; µg/mL is assumed, so skip it.

// query In one line, give reported Cmax of the entry CC[C@H](C)[C@@H]1NC(=O)[C@@H]2CSSC[C@H](NC(=O)[C@H](CCCNC(=N)N)NC(=O)[C@@H]3CSSC[C@H](NC1=O)C(=O)N[C@@H]([C@@H](C)O)C(=O)N[C@@H](CCCNC(=N)N)C(=O)NCC(=O)N[C@@H](Cc1ccccc1)C(=O)N3)C(=O)N[C@@H](CC(C)C)C(=O)N[C@H]1CSSC[C@H](NC(=O)[C@H](C(C)C)NC(=O)CNC(=O)[C@H](CCCNC(=N)N)NC(=O)[C@H](CCCNC(=N)N)NC1=O)C(=O)N[C@@H](CCCNC(=N)N)C(=O)N2 [Peptide 1] (cyclo(GFCRCLCRRGVCRCICTR); disulfide 3-16, 5-14, 7-12) .
// result 27.3

* * *

assay: Single i.v. bolus PK in a vervet monkey (pilot safety study)
Format: in vivo, vervet/African green monkey (Chlorocebus aethiops sabaeus)
study_conditions: male, monkey, plasma, iv, single 3 mg/kg i.v. bolus
Where a SMILES comes first, the peptide text is derived from it. Bridges are numbered along the chain shown (N, C = ends).
quantity: AUC (ng·h/mL)
Give the number; ng·h/mL is assumed, so skip it.

// query In one line, give reported AUC of the entry CC[C@H](C)[C@@H]1NC(=O)[C@@H]2CSSC[C@H](NC(=O)[C@H](CCCNC(=N)N)NC(=O)[C@@H]3CSSC[C@H](NC1=O)C(=O)N[C@@H]([C@@H](C)O)C(=O)N[C@@H](CCCNC(=N)N)C(=O)NCC(=O)N[C@@H](Cc1ccccc1)C(=O)N3)C(=O)N[C@@H](CC(C)C)C(=O)N[C@H]1CSSC[C@H](NC(=O)[C@H](C(C)C)NC(=O)CNC(=O)[C@H](CCCNC(=N)N)NC(=O)[C@H](CCCNC(=N)N)NC1=O)C(=O)N[C@@H](CCCNC(=N)N)C(=O)N2 [Peptide 1] (cyclo(GFCRCLCRRGVCRCICTR); disulfide 3-16, 5-14, 7-12) .
// result 21900

* * *

assay: in vivo
study_conditions: both, Sprague-Dawley, rat, iv, 10 mg/kg/day
Where a SMILES comes first, the peptide text is derived from it. Bridges are numbered along the chain shown (N, C = ends).
quantity: Vd (L/kg)
Give the number; L/kg is assumed, so skip it.

// query In one line, give reported Vd of the entry CC[C@H](C)[C@@H]1NC(=O)[C@@H]2CSSC[C@H](NC(=O)[C@H](CCCNC(=N)N)NC(=O)[C@@H]3CSSC[C@H](NC1=O)C(=O)N[C@@H]([C@@H](C)O)C(=O)N[C@@H](CCCNC(=N)N)C(=O)NCC(=O)N[C@@H](Cc1ccccc1)C(=O)N3)C(=O)N[C@@H](CC(C)C)C(=O)N[C@H]1CSSC[C@H](NC(=O)[C@H](C(C)C)NC(=O)CNC(=O)[C@H](CCCNC(=N)N)NC(=O)[C@H](CCCNC(=N)N)NC1=O)C(=O)N[C@@H](CCCNC(=N)N)C(=O)N2 [Peptide 1] (cyclo(GFCRCLCRRGVCRCICTR); disulfide 3-16, 5-14, 7-12) .
// result 1.01

* * *

assay: in vivo
study_conditions: both, cynomolgus monkey, iv, 15 mg/kg, AUCτ, cynomolgus, 15 mg/kg i.v., Day 1, mean
Where a SMILES comes first, the peptide text is derived from it. Bridges are numbered along the chain shown (N, C = ends).
quantity: AUC (µg·h/mL)
Give the number; µg·h/mL is assumed, so skip it.

// query In one line, give reported AUC of the entry CC[C@H](C)[C@@H]1NC(=O)[C@@H]2CSSC[C@H](NC(=O)[C@H](CCCNC(=N)N)NC(=O)[C@@H]3CSSC[C@H](NC1=O)C(=O)N[C@@H]([C@@H](C)O)C(=O)N[C@@H](CCCNC(=N)N)C(=O)NCC(=O)N[C@@H](Cc1ccccc1)C(=O)N3)C(=O)N[C@@H](CC(C)C)C(=O)N[C@H]1CSSC[C@H](NC(=O)[C@H](C(C)C)NC(=O)CNC(=O)[C@H](CCCNC(=N)N)NC(=O)[C@H](CCCNC(=N)N)NC1=O)C(=O)N[C@@H](CCCNC(=N)N)C(=O)N2 [Peptide 1] (cyclo(GFCRCLCRRGVCRCICTR); disulfide 3-16, 5-14, 7-12) .
// result 138

* * *

assay: in vivo
study_conditions: both, cynomolgus monkey, iv, 3 mg/kg, Vss, cynomolgus, 3 mg/kg i.v., Day 1, mean
Where a SMILES comes first, the peptide text is derived from it. Bridges are numbered along the chain shown (N, C = ends).
quantity: Vd (L/kg)
Give the number; L/kg is assumed, so skip it.

// query In one line, give reported Vd of the entry CC[C@H](C)[C@@H]1NC(=O)[C@@H]2CSSC[C@H](NC(=O)[C@H](CCCNC(=N)N)NC(=O)[C@@H]3CSSC[C@H](NC1=O)C(=O)N[C@@H]([C@@H](C)O)C(=O)N[C@@H](CCCNC(=N)N)C(=O)NCC(=O)N[C@@H](Cc1ccccc1)C(=O)N3)C(=O)N[C@@H](CC(C)C)C(=O)N[C@H]1CSSC[C@H](NC(=O)[C@H](C(C)C)NC(=O)CNC(=O)[C@H](CCCNC(=N)N)NC(=O)[C@H](CCCNC(=N)N)NC1=O)C(=O)N[C@@H](CCCNC(=N)N)C(=O)N2 [Peptide 1] (cyclo(GFCRCLCRRGVCRCICTR); disulfide 3-16, 5-14, 7-12) .
// result 1.22

* * *

assay: in vivo
study_conditions: both, cynomolgus monkey, iv, 0.3 mg/kg, CL, cynomolgus, 0.3 mg/kg i.v., Day 1, mean
Where a SMILES comes first, the peptide text is derived from it. Bridges are numbered along the chain shown (N, C = ends).
quantity: clearance (mL/min/kg)
Give the number; mL/min/kg is assumed, so skip it.

// query In one line, give reported clearance of the entry CC[C@H](C)[C@@H]1NC(=O)[C@@H]2CSSC[C@H](NC(=O)[C@H](CCCNC(=N)N)NC(=O)[C@@H]3CSSC[C@H](NC1=O)C(=O)N[C@@H]([C@@H](C)O)C(=O)N[C@@H](CCCNC(=N)N)C(=O)NCC(=O)N[C@@H](Cc1ccccc1)C(=O)N3)C(=O)N[C@@H](CC(C)C)C(=O)N[C@H]1CSSC[C@H](NC(=O)[C@H](C(C)C)NC(=O)CNC(=O)[C@H](CCCNC(=N)N)NC(=O)[C@H](CCCNC(=N)N)NC1=O)C(=O)N[C@@H](CCCNC(=N)N)C(=O)N2 [Peptide 1] (cyclo(GFCRCLCRRGVCRCICTR); disulfide 3-16, 5-14, 7-12) .
// result 8.3

* * *

assay: in vivo
study_conditions: both, Sprague-Dawley, rat, iv, 10 mg/kg
Where a SMILES comes first, the peptide text is derived from it. Bridges are numbered along the chain shown (N, C = ends).
quantity: Cmax (ng/mL)
Give the number; ng/mL is assumed, so skip it.

// query In one line, give reported Cmax of the entry CC[C@H](C)[C@@H]1NC(=O)[C@@H]2CSSC[C@H](NC(=O)[C@H](CCCNC(=N)N)NC(=O)[C@@H]3CSSC[C@H](NC1=O)C(=O)N[C@@H]([C@@H](C)O)C(=O)N[C@@H](CCCNC(=N)N)C(=O)NCC(=O)N[C@@H](Cc1ccccc1)C(=O)N3)C(=O)N[C@@H](CC(C)C)C(=O)N[C@H]1CSSC[C@H](NC(=O)[C@H](C(C)C)NC(=O)CNC(=O)[C@H](CCCNC(=N)N)NC(=O)[C@H](CCCNC(=N)N)NC1=O)C(=O)N[C@@H](CCCNC(=N)N)C(=O)N2 [Peptide 1] (cyclo(GFCRCLCRRGVCRCICTR); disulfide 3-16, 5-14, 7-12) .
// result 27500

* * *

assay: in vivo
study_conditions: both, cynomolgus monkey, iv, 5 mg/kg/day, CL, cynomolgus, 5 mg/kg/day i.v., Day 10, mean
Where a SMILES comes first, the peptide text is derived from it. Bridges are numbered along the chain shown (N, C = ends).
quantity: clearance (mL/min/kg)
Give the number; mL/min/kg is assumed, so skip it.

// query In one line, give reported clearance of the entry CC[C@H](C)[C@@H]1NC(=O)[C@@H]2CSSC[C@H](NC(=O)[C@H](CCCNC(=N)N)NC(=O)[C@@H]3CSSC[C@H](NC1=O)C(=O)N[C@@H]([C@@H](C)O)C(=O)N[C@@H](CCCNC(=N)N)C(=O)NCC(=O)N[C@@H](Cc1ccccc1)C(=O)N3)C(=O)N[C@@H](CC(C)C)C(=O)N[C@H]1CSSC[C@H](NC(=O)[C@H](C(C)C)NC(=O)CNC(=O)[C@H](CCCNC(=N)N)NC(=O)[C@H](CCCNC(=N)N)NC1=O)C(=O)N[C@@H](CCCNC(=N)N)C(=O)N2 [Peptide 1] (cyclo(GFCRCLCRRGVCRCICTR); disulfide 3-16, 5-14, 7-12) .
// result 2.27
